meta.source: patent US9233933B2

# METHOD_NOTES: Cytotoxicity in HepG2 cells using CellTiter-Blue, same incubation period as HepG2.2.15 assay
# Type: cell-based
# ASSAY_CONDITIONS: human, HepG2 6 days CC50
Below: a set of entries, each annotated with reported CC50 at 6 days.
OUTCOME_MEASURE: CC50 at 6 days

>>> observed("COC(=O)C1=C(CN2CCOCC2)NC(c2ccccn2)=NC12CCC(C)(C)c1ccccc12 (stereo not shown)")
"71.1 µM"
>>> observed("COC(=O)C1=C(C)NC(c2ncc(F)cc2C)=NC12CCCc1cc(F)ccc12 (stereo not shown)")
"> 50 µM"
>>> observed("COC(=O)C1=C(CN2CCOCC2)NC(c2ccccn2)=NC12c1ccccc1CC2(F)F (stereo not shown)")
"> 100 µM"
>>> observed("COC(=O)C1=C(CN2CCOCC2)NC(c2ccccn2)=NC12c1ccccc1OC2(F)F (stereo not shown)")
"48.4 µM"
>>> observed("COC(=O)C1=C(CN2CCOCC2)NC(c2ccccn2)=NC12CCc1c(F)cccc12 (single isomer, unassigned) [Compound 66a]")
"> 100 µM"
>>> observed("COC(=O)C1=C(C)NC(c2ncc(F)cc2F)=NC12c1ccccc1CC2(F)F (stereo not shown)")
"> 100 µM"
>>> observed("CCOC(=O)C1=C(CN2CCOCC2)NC(c2ccccn2)=NC12CCc1cc(F)ccc12 (stereo not shown)")
"62.9 µM"
>>> observed("CCOC(=O)C1=C(CN2CCOCC2)NC(c2ccccn2)=NC12CCC(C)(C)c1ccccc12 (stereo not shown)")
"36.4 µM"
>>> observed("COC(=O)C1=C(C)NC(c2ncc(F)cc2F)=NC12c1ccccc1OC2(F)F (single isomer, unassigned) [Compound 106a]")
"> 100 µM"
>>> observed("COC(=O)C1=C(CN2CCOCC2)NC(c2ncc(F)cc2F)=NC12CCc1c2ccc(F)c1F (stereo not shown)")
"> 25 µM"
>>> observed("COC(=O)C1=C(CN2CCOCC2)NC(c2ccccn2)=NC12CCc1ccc(F)cc12 (stereo not shown) [Compound 96]")
"> 100 µM"
>>> observed("CCOC(=O)C1=C(CN2CCOCC2)NC(c2ccccn2)=NC12CCCc1ccc(F)cc12 (stereo not shown)")
"68.9 µM"
>>> observed("COC(=O)C1=C(C)NC(c2ncc(F)cc2F)=NC12CCc1c2ccc(F)c1F (stereo not shown)")
"> 100 µM"
>>> observed("COC(=O)C1=C(C)NC(c2ccccn2)=NC12CCc1ccccc12 (stereo not shown)")
"> 50 µM"
>>> observed("COC(=O)C1=C(C)NC(c2ncc(F)cc2F)=NC12C(=O)N(C)c1cc(F)ccc12 (stereo not shown)")
"> 100 µM"
>>> observed("COC(=O)C1=C(C)NC(c2ccccn2)=NC12CCOc1ccccc12 (stereo not shown)")
"> 100 µM"

----------
# METHOD_NOTES: Cytotoxicity in HepG2 cells using CellTiter-Blue, same incubation period as HepG2.2.15 assay
# Assay type: cell-based
# ASSAY_CONDITIONS: human, HepG2 6 days CC50
This listing pairs molecules with measured CC50 at 6 days.
OUTCOME_MEASURE: CC50 at 6 days (µM)

>>> observed("COC(=O)C1=C(CN2CCOCC2)NC(c2ccccn2)=NC12CCc1c(F)cccc12 (racemic) [Compound 66]")
89.3
>>> observed("COC(=O)C1=C(CN2CCOCC2)NC(c2ccccn2)=NC12CCCc1cc(F)ccc12 (stereo not shown) [Compound 74]")
78.3

----------
# Test system: HBV
# METHOD_NOTES: anti-HBV activity in stable transfected HepG2.2.15 cell line, HBV DNA from secreted virions by realtime PCR
# Type: cell-based, Hepatitis B virus
# ASSAY_CONDITIONS: Hepatitis B virus, HepG2.2.15, 144 h, HepG2.2.15 cells, 6 days of treatment, secreted virion HBV DNA; read-out: HBV-HepG2 2.15 EC50
OUTCOME_MEASURE: EC50 (µM)

>>> observed("COC(=O)C1=C(CN2CCOCC2)NC(c2ncc(F)cc2F)=NC12CC(C)(C)c1ccccc12 (stereo not shown) [Compound 93]")
53.4
>>> observed("COC(=O)C1=C(CN2CCOCC2)NC(c2ccccn2)=NC12CCC(C)(C)c1ccccc12 (stereo not shown) [Compound 72]")
54
>>> observed("CCOC(=O)C1=C(CN2CCOCC2)NC(c2ccccn2)=NC12CCCc1ccc(F)cc12 (stereo not shown) [Compound 59]")
59.5
>>> observed("COC(=O)C1=C(C)NC(c2nccs2)=NC1(C)c1ccc(F)c(F)c1 (racemic) [Compound 155]")
0.744
>>> observed("COC(=O)C1=C(CN2CCOCC2)NC(c2ncc(F)cc2F)=NC1(C)c1ccc(F)c(Cl)c1 (stereo not shown) [Compound 150]")
1.35
>>> observed("COC(=O)C1=C(CN2CCOCC2)NC(c2ccccn2)=NC12c1ccccc1CC2(F)F (stereo not shown) [Compound 110]")
10.7
>>> observed("COC(=O)C1=C(CN2CCOCC2)NC(c2ccccn2)=NC12C=Cc1cc(F)ccc12 (stereo not shown) [Compound 145]")
0.36
>>> observed("COC(=O)C1=C(C2CC2)NC(c2ncc(F)cc2F)=NC1(C)c1ccc(F)c(F)c1 (stereo not shown) [Compound 142]")
11.5

----------
# System: HepG2 cells
# METHOD_NOTES: Cytotoxicity in HepG2 cells using CellTiter-Blue, same incubation period as HepG2.2.15 assay
# Format: cell-based
# ASSAY_CONDITIONS: HepG2 cells, 6 days, CellTiter-Blue; read-out: HepG2 6 days CC50
OUTCOME_MEASURE: CC50 (µM)

>>> observed("CCOC(=O)C1=C(CN2CCOCC2)NC(c2ccccn2)=NC1(c1ccc(F)cc1)C(F)(F)F (racemic) [Compound 34a]")
30.9
>>> observed("CCOC(=O)C1=C(CN2CCOCC2)NC(c2ccccn2)=NC1(C)c1ccc(F)cc1 (racemic) [Compound 4a]")
92
>>> observed("CCOC(=O)C1=C(CN2CCOCC2)NC(c2ccccn2)=NC1(c1ccc(F)cc1)C(F)(F)F (racemic) [Compound 34]")
20
>>> observed("CCOC(=O)C1=C(CN2CCOCC2)NC(c2ccccn2)=NC1(C)c1ccc(F)cc1 (racemic) [Compound 4b]")
92.4
>>> observed("CCOC(=O)C1=C(CN2CCOCC2)NC(c2ccccn2)=NC1(c1ccc(F)cc1)C(F)(F)F (racemic) [Compound 34b]")
41.6

----------
Reported CC50 at 4 days values are given for each entry in this list.
# METHOD_NOTES: in vitro
# ASSAY_CONDITIONS: human, HepG2 4 days CC50
Where a name gives a salt, the structure may show the parent alone.
OUTCOME_MEASURE: CC50 at 4 days

>>> observed("CCOC(=O)C1=C(CN2CCOCC2)NC(c2ccccn2)=NC12CCc1cc(F)ccc12 (stereo not shown)")
"> 100 µM"
>>> observed("COC(=O)C1=C(CN2CCOCC2)NC(c2ccccn2)=NC12CCc1ccc(F)cc12 (single isomer, unassigned) [Compound 96a]")
"> 100 µM"
>>> observed("COC(=O)C1=C(CN2CCOCC2)NC(c2ccccn2)=NC12CC(C)c1cc(F)ccc12 (stereo not shown)")
"> 25 µM"
>>> observed("COC(=O)C1=C(CN2CCOCC2)NC(c2ccccn2)=NC12C(F)=C(F)c1cc(F)ccc12 (stereo not shown)")
"> 25 µM"
>>> observed("COC(=O)C1=C(CN2CCOCC2)NC(c2ccccn2)=NC12CCOc1ccccc12 (stereo not shown)")
"> 100 µM"
>>> observed("COC(=O)C1=C(CN2CCOCC2)NC(c2ccccn2)=N[C@@]12c1ccc(F)cc1C[C@H]2F (racemic)")
"> 25 µM"
>>> observed("COC(=O)C1=C(CN2CCOCC2)NC(c2ccccn2)=NC12CC(=O)c1cc(F)ccc12 (stereo not shown) [139 •TFA]")
"> 25 µM"
>>> observed("COC(=O)C1=C(CN2CCOCC2)NC(c2ccccn2)=NC12c1ccccc1OC2(F)F (stereo not shown)")
"> 25 µM"
>>> observed("COC(=O)C1=C(C)NC(c2ncc(F)cc2F)=NC12CCCc1cc(F)ccc12 (stereo not shown)")
"> 50 µM"
>>> observed("CCOC(=O)C1=C(CN2CCOCC2)NC(c2ccccn2)=NC12CCC(C)(C)c1ccccc12 (stereo not shown)")
"> 100 µM"
>>> observed("COC(=O)C1=C(CN2CCOCC2)NC(c2ccccn2)=NC12CCc1ccc(F)cc12 (stereo not shown) [Compound 96]")
"97 µM"
>>> observed("CCOC(=O)C1=C(CN2CCOCC2)NC(c2ccccn2)=NC12CCCc1ccc(F)cc12 (stereo not shown)")
"> 100 µM"
>>> observed("COC(=O)C1=C(CN2CCOCC2)NC(c2ccccn2)=NC12CCc1c(F)cccc12 (single isomer, unassigned) [Compound 66a]")
"> 100 µM"
>>> observed("COC(=O)C1=C(C)NC(c2ccccn2)=NC12c1ccccc1CC2(F)F (stereo not shown)")
"> 50 µM"
>>> observed("COC(=O)C1=C(C)NC(c2nccs2)=NC12C(F)=Cc1c2ccc(F)c1F (racemic) [Compound 174]")
"> 25 µM"
>>> observed("COC(=O)C1=C(C)NC(c2ncc(F)cc2F)=NC12CC(C)(C)c1ccccc12 (single isomer, unassigned) [Compound 134a]")
"> 50 µM"
>>> observed("COC(=O)C1=C(CN2CCOCC2)NC(c2ccccn2)=NC12CC(O)c1cc(F)ccc12 (stereo not shown)")
"> 10 µM"
>>> observed("COC(=O)C1=C(C)NC(c2ccccn2)=NC12CCOc1ccccc12 (stereo not shown)")
"> 50 µM"
>>> observed("COC(=O)C1=C(C)NC(c2ncc(F)cc2F)=NC12c1ccccc1OC2(F)F (stereo not shown) [Compound 106]")
"> 25 µM"
>>> observed("COC(=O)C1=C(C)NC(c2ncc(F)cc2F)=NC12c1ccccc1CC2(F)F (stereo not shown)")
"> 25 µM"
>>> observed("COC(=O)C1=C(CN2CCOCC2)NC(c2ccccn2)=NC12CCc1ccccc12 (stereo not shown)")
"> 100 µM"
>>> observed("COC(=O)C1=C(C)NC(c2ncc(F)cc2F)=NC12CCc1c2ccc(F)c1F (stereo not shown)")
"> 100 µM"
>>> observed("COC(=O)C1=C(CN2CCOCC2)NC(c2ncc(F)cc2F)=NC12CC(C)(C)c1ccccc12 (stereo not shown)")
"> 100 µM"
>>> observed("COC(=O)C1=C(CN2CCOCC2)NC(c2ccccn2)=NC12CCC(C)(C)c1ccccc12 (stereo not shown)")
"> 100 µM"
>>> observed("COC(=O)C1=C(CN2CCOCC2)NC(c2ccccn2)=NC12c1ccccc1CC2(F)F (stereo not shown)")
"> 50 µM"
>>> observed("COC(=O)C1=C(C)NC(c2nccs2)=NC12C(F)=C(F)c1cc(F)ccc12 (single isomer, unassigned) [Compound 166a]")
"> 25 µM"
>>> observed("COC(=O)C1=C(CN2CCOCC2)NC(c2ccccn2)=NC12c1ccc(F)cc1C(F)C2(F)F (single isomer, unassigned) [Compound 168A]")
"> 25 µM"
>>> observed("COC(=O)C1=C(CN2CCOCC2)NC(c2ccccn2)=NC12C(F)=Cc1ccccc12 (stereo not shown)")
"> 50 µM"
>>> observed("COC(=O)C1=C(CN2CCOCC2)NC(c2ccccn2)=NC12CCc1cc(F)ccc12 (stereo not shown)")
"> 25 µM"
>>> observed("COC(=O)C1=C(C)NC(c2ncc(F)cc2F)=NC12c1ccccc1OC2(F)F (single isomer, unassigned) [Compound 106a]")
"> 50 µM"
>>> observed("COC(=O)C1=C(C)NC(c2ncc(F)cc2F)=NC12C(=O)N(C)c1cc(F)ccc12 (stereo not shown)")
"> 50 µM"
